Assign MRT inf to each entry below.
assay: Pharmacokinetic experiment in rats; type: in vivo, Sprague-Dawley rats; conditions: male, Sprague-Dawley, rat, plasma, PO 20 mg/kg single dose, read-out: MRTINF—pred
Numbers only, in h.

O=C(Nc1ccc(OC(F)(F)Cl)cc1)c1cnc(N2CC[C@@H](F)C2)c(-c2cnccn2)c1	5.43

Please turn your attention to the following entry.
Prompt: Requested field: MRT inf. Item: O=C(Nc1ccc(OC(F)(F)Cl)cc1)c1cnc(N2CC[C@@H](O)C2)c(-c2cnccn2)c1
Completion: 5.43
